Molecular target: Beta-lactamase (Pseudomonas aeruginosa) (UniProt Q79MP6)
Sequence (Q79MP6 19-246 limits assumed): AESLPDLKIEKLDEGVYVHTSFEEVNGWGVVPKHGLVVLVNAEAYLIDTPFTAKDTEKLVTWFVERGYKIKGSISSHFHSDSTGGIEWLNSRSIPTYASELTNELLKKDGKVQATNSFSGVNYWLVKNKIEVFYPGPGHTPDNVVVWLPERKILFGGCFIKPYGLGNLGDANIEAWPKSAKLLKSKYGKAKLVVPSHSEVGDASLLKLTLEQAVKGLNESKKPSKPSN
Assay: Competitive inhibition of Pseudomonas aeruginosa beta-lactamase IMP-1 assessed as formation of 4-nitrothiophenolate at pH 7 using CENTA as chromogenic substrate
Recorded Kic values for a group of compounds are listed next.
// note: answer is a bare numeric in µM

Guide cases for Kic, answers given:
input-smiles	test-target	Kic [µM]
NC(S)=NNC(=O)c1ccccc1	Beta-lactamase (Pseudomonas aeruginosa) (UniProt Q79MP6)	19
NC(=S)NNC(=O)c1ccc(Cc2ccccc2)cc1	Beta-lactamase (Pseudomonas aeruginosa) (UniProt Q79MP6)	18
NC(=S)NNC(=O)c1ccc(C(=O)c2cccc([N+](=O)[O-])c2)cc1	Beta-lactamase (Pseudomonas aeruginosa) (UniProt Q79MP6)	16

Noted for NC(=S)NNC(=O)c1ccc(C(=O)c2ccc([N+](=O)[O-])cc2)cc1 : its Kic reads 11

Noted for NC(=S)NNC(=O)c1ccc(C(=O)c2ccccc2Cl)cc1 : its Kic reads 14

Noted for O=C(c1ccccc1)c1ccc(-c2nnc(S)[nH]2)cc1 : its Kic reads 75

Noted for NC(=S)NNC(=O)c1ccc(C(=O)c2ccccc2)cc1 : its Kic reads 13

Noted for Cc1ccc(C(=O)c2ccc(C(=O)NNC(N)=S)cc2)cc1 : its Kic reads 41

Entry source: ChEMBL document CHEMBL1932941
